Hey, just so you know, these numbers are from ChEMBL document CHEMBL5131508.

# METHOD SUMMARY: Stability of compound assessed as compound degradation under dark condition measured after 20 days by 1H-NMR analysis
# Assay type: physicochemical
# EXPERIMENTAL CONDITIONS: time 20 day; read-out: Drug degradation
READOUT TYPE: degraded at 480 h (%)

{"STRUCTURE AS SMILES": "C=CCCCCCCCCOC(=O)/C=C/c1cccc(C(C)(C)C)c1O", "UNIT INFO": "%", "VALUE MEASURED": 6}
